# System: yeast
# Test summary: growth rescue ARC experiments performed in yeast
# Assay type: cell-based
# Experimental context: Saccharomyces cerevisiae, read-out: in vivo IC50
Property: IC50 (µM)
# value in µM; strip the unit string

Q: Could you tell me which IC50 is on file for CC(C)/N=C(/Nc1cccc(C(F)(F)F)c1)c1ccncc1 [X] ?
Result: 13.2

---

# Target: Recombinant p38 (Homo sapiens)
# Sequence (Q16539 whole entry): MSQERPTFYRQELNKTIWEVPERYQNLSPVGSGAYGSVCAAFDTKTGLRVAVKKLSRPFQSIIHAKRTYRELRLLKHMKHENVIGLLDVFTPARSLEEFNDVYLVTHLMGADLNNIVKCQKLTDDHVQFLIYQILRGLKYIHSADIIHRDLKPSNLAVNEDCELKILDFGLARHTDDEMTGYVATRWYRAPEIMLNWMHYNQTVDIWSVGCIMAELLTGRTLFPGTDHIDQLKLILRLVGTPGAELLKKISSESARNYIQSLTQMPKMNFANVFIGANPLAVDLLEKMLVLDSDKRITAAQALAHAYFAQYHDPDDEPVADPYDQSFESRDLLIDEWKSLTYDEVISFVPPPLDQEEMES
# Test summary: p38 assay (32P incorporation into GST-ATF-2)
# Experimental context: recombinant p38, GST-ATF-2 substrate, 30 μM ATP; IC50 estimated from graph
Property: pIC50
Notebook: values listed as pIC50 are -log10 of the concentration (mol/L).

Q: Requested field: pIC50. Item: CC(C)/N=C(/Nc1cccc(C(F)(F)F)c1)c1ccncc1
Result: 6.12
